Test system: lambsquarters (Chenopodium album)
experiment summary: Test B pre-/postemergence plant response
Assay type: in vivo
setup conditions: Preemergence, 62 g ai/ha; scale 0 to 100
Examples of compounds with documented Plant response rating, Lambsquarters follow.
In your answer, state the number alone without any accompanying words.

Some entries whose results are on file:
| compound | measured on | Plant response rating, Lambsquarters |
| --- | --- | --- |
| Cc1cc(-c2ccc(Cl)cc2)nn1-c1c(OS(=O)(=O)C(C)C)cnn(C)c1=O | lambsquarters (Chenopodium album) | 100 |
| Cc1cc(-c2ccc(Cl)cc2)nn1-c1c(OC(=O)c2cccs2)cnn(C)c1=O | lambsquarters (Chenopodium album) | 0 |
| Cc1cc(-c2ccc(Cl)cc2)nn1-c1c(OC(=O)CC(C)C)cnn(C)c1=O | lambsquarters (Chenopodium album) | 0 |
| Cc1cc(-c2ccc(C(F)(F)F)c(F)c2)nn1-c1c(O)c(C(F)(F)F)nn(C)c1=O | lambsquarters (Chenopodium album) | 0 |
| Cc1nn(C)c(=O)c(-n2nc(-c3ccc(Cl)cc3)cc2C)c1O | lambsquarters (Chenopodium album) | 0 |

Below: the item to evaluate.
Using the record for Cn1ncc(O)c(-n2nc(-c3ccc(Cl)cc3)cc2C2CC2)c1=O , report its Plant response rating, Lambsquarters.
0

----------
Measured Plant response rating, Oat, Wild accompanies every entry in the list below.
Tested on: wild oat (Avena fatua)
experiment summary: Test B pre-/postemergence plant response
Assay type: in vivo
setup conditions: Postemergence, 31 g ai/ha; scale 0 to 100
Lab note: jot down the number only; don't add units.

| compound | Plant response rating, Oat, Wild |
| --- | --- |
| Cc1cc(-c2ccc(Cl)cc2)nn1-c1c(OC(=O)c2cccs2)cnn(C)c1=O | 95 |

Provide value of Plant response rating, Oat, Wild for this record tested with wild oat (Avena fatua): Cc1nn(C)c(=O)c(-n2nc(-c3ccc(Cl)cc3)cc2Cl)c1O
70

Queued: CCCc1cc(-c2ccc(Cl)cc2)nn1-c1c(O)cnn(C)c1=O
100

Repeat for the following molecule: CCOC(=O)Oc1cnn(C)c(=O)c1-n1nc(-c2ccc(Cl)cc2)cc1C
95

# repeat for CCc1cc(-c2ccc(Br)cc2)nn1-c1c(O)c(C)nn(C)c1=O
100

----------
Each entry below carries its recorded Plant response rating, Barley.
System: winter barley (Hordeum vulgare)
experiment summary: Test B postemergence plant response
Type: in vivo
setup conditions: Postemergence, 62 g ai/ha; scale 0 to 100, 0 no effect, 100 complete control
Experimental: At the same time, plants selected from these crop and weed species and also winter barley (Hordeum vulgare), canarygrass (Phalaris minor), chickweed (Stellaria media) and windgrass (Apera spica-venti) were treated with postemergence applications of some of the test chemicals formulated in the same manner. Plants ranged in height from 2 to 18 cm (1- to 4-leaf stage) for postemergence treatments. […]
Please give only the number in your answer, with no unit.

| compound | measured on | measured parameter | numeric readout |
| --- | --- | --- | --- |
| Cc1cc(-c2ccc(Cl)cc2)nn1-c1c(OC(=O)c2ccccc2Cl)cnn(C)c1=O | winter barley (Hordeum vulgare) | Plant response rating, Barley | 10 |

# input compound: CCOC(=O)Oc1cnn(C)c(=O)c1-n1nc(-c2ccc(Cl)cc2)cc1C ; wanted: its Plant response rating, Barley
0

Now the compound CCc1cc(-c2ccc(Br)cc2)nn1-c1c(O)c(C)nn(C)c1=O
95

Follow-up entry: Cc1nn(C)c(=O)c(-n2nc(-c3ccc(Cl)cc3)cc2Cl)c1O
50
